Data origin, for the record: PubChem BioAssay (NCI)

Tested on: 786-0 renal
Assay: NCI-60 one-dose screen, 48 h
Conditions: 10 µM unless noted
This is part of a sample that, as a whole, favours compounds with a hit. Of some 83,000 tested, about 20% had one in any assay. Active and inactive are the calls of the source. Rule for the calls: active = growth percent below 10; inactive = the rest. *1 amine or outer side, *2 acyl side, *3 side chain or, on linkers, in order; H or OH if unused. Where a SMILES comes first, the peptide text is derived from it. Bridges are numbered along the chain shown (N, C = ends). Roman numbers before positions name the chains, in order. [ ]: non-standard residue; d: D form. ξ: configuration not given here. Actinocin(1to9) = Cc1c2oc3c(C)ccc(C(=O)[*:2])c3nc-2c(C(=O)[*:1])c(N)c1=O; NMeV = CN[CH](C(=O)O)C(C)C; ξD = NC(CC(=O)O)C(=O)O; Sar = CNCC(=O)O
Your answer must be one of the following: active, inactive

Illustrative cases are given below, each with its answer.
Q) Please indicate how the test categorized NCC(=O)NC(CC(=O)O)C(=O)O (stereo not given) (H-Gly-[ξD]-OH) .
A) inactive

Q) Please indicate how the test categorized CCSc1nc2ccccc2o1 .
A) inactive

Q) Please indicate how the test categorized CCCCCCN(CCCCCC)CCCNc1nccc2ccccc12 .
A) active

Q) Please indicate how the test categorized CC(C)(C)c1ccc(O)c(Br)c1 .
A) inactive

Continuing:
Q) Please indicate how the test categorized CCCCCCCCC(=O)OCCCC(CCC(CCC1CCCO1)OC(=O)CCCCCCCC)OC(=O)CCCCCCCC (stereo not given) .
A) inactive

Q) Please indicate how the test categorized Nc1cccc2cccc([N+](=O)[O-])c12 .
A) inactive

Q) Please indicate how the test categorized CCC(C)C1NC(=O)C(NC(=O)c2c3nc4c(C(=O)NC5C(=O)NC(C(C)CC)C(=O)N6CCCC6C(=O)N(C)CC(=O)N(C)C(C(C)C)C(=O)OC5C)ccc(C)c4oc-3c(C)c(=O)c2N)C(C)OC(=O)C(C(C)C)N(C)C(=O)CN(C)C(=O)C2CCCN2C1=O (stereo not given) (I: TIP[Sar][NMeV] / II: TIP[Sar][NMeV]; ester I:1-I:C, II:1-II:C; linker I:N-II:N via Actinocin(1to9); configuration not given here) .
A) active

Q) Please indicate how the test categorized N#C/C(=N\Nc1ccc(Cl)cc1)C(=O)C1CC1 .
A) inactive

Q) Please indicate how the test categorized O=C(c1ccc(O)c(Br)c1)c1ccc(O)c(Br)c1 .
A) inactive

Q) Please indicate how the test categorized CC(O)C(O)C(O)C(O)C(O)C(=O)NNc1ccccc1 (stereo not given) .
A) inactive

Q) Please indicate how the test categorized O=[N+]([O-])c1ccc(C(Br)c2ccc([N+](=O)[O-])cc2)cc1 .
A) inactive
